Consider the following molecules and their measured Average Area Under the Viability Curve (AUC), AUC norm value readings.
- System: SNU601
- experimentalDetails: Cell viability drug screen, 12-point dose-response AUC
- Assay type: cell-based, human
- conditionNotes: SNU601 cells; 72 hours
- Method: An FDA-approved small-molecule pharmacological compound (#L1300) and an anticancer compound for research (#L2000) were purchased from Selecckchem and a 10 mM solution was prepared in DMSO. […] Cells cultured for cell-based drug assay were inoculated into a 96-well white optical plate (Corning) at 5×10^3 cells per well. […] The final drug concentration in the 5 ns range and the DMSO specification control (0.5%) were calculated. […]
quantityMeasured: Average Area Under the Viability Curve (AUC), AUC norm value

[[record]]
molecule = "CCOc1cc2ncc(C#N)c(Nc3ccc(OCc4ccccn4)c(Cl)c3)c2cc1NC(=O)/C=C/CN(C)C"
readoutnumber = 0.802

[[record]]
molecule = "O=C(CCCCCCC(=O)Nc1ccccc1)NO [Vorinostat (SAHA), Vorinostat]"
readoutnumber = 2.84

[[record]]
molecule = "Nc1nc(F)nc2c1ncn2[C@@H]1O[C@H](COP(=O)(O)O)[C@@H](O)[C@@H]1O [Fludarabine Phosphate (Fludara), Fludarabine Phosphate]"
readoutnumber = "−0.5439"

